Recorded STK11 functional score for the following variants
B1: library; numbered along this chain (parent)
chain: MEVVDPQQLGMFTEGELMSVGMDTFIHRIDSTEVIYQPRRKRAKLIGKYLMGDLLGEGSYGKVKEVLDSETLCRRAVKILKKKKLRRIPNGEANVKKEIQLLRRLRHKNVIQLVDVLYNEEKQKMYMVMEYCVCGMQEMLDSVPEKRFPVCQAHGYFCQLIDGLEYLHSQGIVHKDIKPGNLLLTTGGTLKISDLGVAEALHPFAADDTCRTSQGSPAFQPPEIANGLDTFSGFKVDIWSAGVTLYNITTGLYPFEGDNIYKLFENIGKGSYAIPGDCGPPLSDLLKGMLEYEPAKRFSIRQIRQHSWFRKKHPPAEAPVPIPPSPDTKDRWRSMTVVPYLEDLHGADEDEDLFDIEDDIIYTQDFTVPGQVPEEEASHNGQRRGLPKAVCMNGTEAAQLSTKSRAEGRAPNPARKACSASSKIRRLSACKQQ

- Variants of: B1
- ASSAY PROTOCOL: STK11 functional score (HeLa growth suppression), rescaled enrichment; synonymous median = 1, nonsense median = 0 (normalised score)
- TEST CONTEXT: with HeLa; variant type: missense

MUT: W239M
STK11 functional score: 0.267
--
MUT: F231R
STK11 functional score: 1.26
--
MUT: L183P
STK11 functional score: 0.221
--
MUT: V110C
STK11 functional score: 0.955
--
MUT: E407I
STK11 functional score: 1.61
--
MUT: P144E
STK11 functional score: 1.63
--
MUT: E120I
STK11 functional score: 1.55
--
MUT: L201E
STK11 functional score: 0.334
--
MUT: D359V
STK11 functional score: 1.05
--
MUT: V77S
STK11 functional score: 0.46
--
MUT: E256I
STK11 functional score: 1.04
--
MUT: H313S
STK11 functional score: 1.17
--
MUT: G187R
STK11 functional score: 0.864
--
MUT: H202R
STK11 functional score: 0.161
--
MUT: P369R
STK11 functional score: 1.44
--
MUT: K44N
STK11 functional score: 1.08
--
MUT: K78I
STK11 functional score: -0.0791
--
MUT: D194E
STK11 functional score: -0.268
--
MUT: G346P
STK11 functional score: 1.61
--
MUT: L263Q
STK11 functional score: 0.281
--
MUT: I361Q
STK11 functional score: 0.616
--
MUT: V143R
STK11 functional score: 1.29
